Tested system: BChE derived from purified human plasma (Homo sapiens)
Experiment summary: biochemical
Condition context: Table 4, acylated furo-benzobicyclo[3.2.1]octenes/octadienes; 0.1 M phosphate buffer pH 7.4, 25 °C, ATCh substrate; read-out: Inhibition of human BChE, IC50 ± SEM
Quantity measured: pIC50
Scale for pIC50: -log10 of concentration given in mol/L; no unit attached.

Query :: Name the reported pIC50 value associated with the compound CCC(=O)C/C=C1\C(O)=CC2CC1c1ccccc12 (centres unmarked)
Result :: 3.84

====

Tested system: BChE derived from purified human plasma (Homo sapiens, UniProt P06276)
Sequence (P06276 29-602): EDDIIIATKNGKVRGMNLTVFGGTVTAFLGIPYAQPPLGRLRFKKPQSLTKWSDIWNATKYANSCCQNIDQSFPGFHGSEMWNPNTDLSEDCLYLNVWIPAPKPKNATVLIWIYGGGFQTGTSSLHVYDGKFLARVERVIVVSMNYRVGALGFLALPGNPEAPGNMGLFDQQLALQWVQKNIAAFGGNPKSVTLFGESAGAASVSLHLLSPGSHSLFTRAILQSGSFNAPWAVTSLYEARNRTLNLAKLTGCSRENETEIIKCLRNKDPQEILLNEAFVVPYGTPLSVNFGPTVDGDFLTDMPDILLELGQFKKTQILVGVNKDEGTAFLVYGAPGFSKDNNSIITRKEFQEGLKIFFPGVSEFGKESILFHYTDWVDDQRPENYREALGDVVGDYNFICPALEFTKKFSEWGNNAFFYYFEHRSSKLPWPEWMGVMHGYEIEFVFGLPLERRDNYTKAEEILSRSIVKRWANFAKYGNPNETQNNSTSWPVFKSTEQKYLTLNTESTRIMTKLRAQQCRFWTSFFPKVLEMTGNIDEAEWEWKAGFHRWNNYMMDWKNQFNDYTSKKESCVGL
Experiment summary: biochemical
Condition context: Table 3, epoxides, alcohols and ethers; 0.1 M phosphate buffer pH 7.4, 25 °C, ATCh substrate; read-out: Inhibition of human BChE, IC50 ± SEM
Below, each of the molecules is paired with its reported IC50 value.
Dear colleague, please return just the value in µM, with no unit written.

Would you please look over these solved cases?
>  <Molecule>
c1ccc([C@H]2C3OC3[C@@H]3C[C@H]2c2ccccc23)cc1 (stereo partly drawn) [endo-38]

>  <Reading unit>
µM

>  <IC50>
22

$$$$
>  <Molecule>
OCCCOC1CC2CC(c3ccccc32)C1c1ccccc1 (stereo not drawn) [endo-45]

>  <Reading unit>
µM

>  <IC50>
90

$$$$
>  <Molecule>
COc1ccc([C@H]2[C@@H]3OC3[C@@H]3C[C@H]2c2ccccc23)cc1 (stereo partly drawn) [endo-39]

>  <Reading unit>
µM

>  <IC50>
33

$$$$

Lab note: next molecule to report on.
Query :: Name the reported IC50 value associated with the molecule CCCOC1C[C@@H]2C[C@@H](c3ccccc32)[C@H]1c1ccccc1 (stereo partly drawn) [endo-43]
Result :: 17

====

Tested system: BChE derived from purified human plasma (Homo sapiens)
Experiment summary: biochemical
Condition context: Table 1, benzobicyclo[3.2.1]octadiene benzylamines; 0.1 M phosphate buffer pH 7.4, 25 °C, ATCh substrate; read-out: Inhibition of BChE, IC50 ± SEM
Quantity measured: IC50

Would you please look over these solved cases?
>  <Compound>
Fc1ccc(CNc2ccc(C3C=CC4CC3c3ccccc34)cc2)cc1 (stereo not drawn) [endo-20]

>  <Tested system>
BChE derived from purified human plasma (Homo sapiens)

>  <IC50>
> 500 µM

$$$$
>  <Compound>
Fc1ccccc1CNc1ccc(C2C=CC3CC2c2ccccc23)cc1 (stereo not drawn) [endo-18]

>  <Tested system>
BChE derived from purified human plasma (Homo sapiens)

>  <IC50>
> 500 µM

$$$$
>  <Compound>
Cc1ccc(CNc2ccc(C3C=CC4CC3c3ccccc34)cc2)cc1 (stereo not drawn) [endo-11]

>  <Tested system>
BChE derived from purified human plasma (Homo sapiens)

>  <IC50>
≥ 500 µM

$$$$
>  <Compound>
Cc1ccccc1CNc1ccc(C2C=CC3CC2c2ccccc23)cc1 (stereo not drawn) [endo-9]

>  <Tested system>
BChE derived from purified human plasma (Homo sapiens)

>  <IC50>
> 500 µM

$$$$
>  <Compound>
Cc1ccccc1CNc1ccc(C2=CCC3CC2c2ccccc23)cc1 (stereo not drawn)

>  <Tested system>
BChE derived from purified human plasma (Homo sapiens)

>  <IC50>
240 µM

$$$$
>  <Compound>
COc1ccc(CNc2ccc(C3C=CC4CC3c3ccccc34)cc2)cc1 (stereo not drawn) [endo-17]

>  <Tested system>
BChE derived from purified human plasma (Homo sapiens)

>  <IC50>
> 500 µM

$$$$
>  <Compound>
C1=C[C@H](c2ccc(NCc3cccs3)cc2)[C@H]2C[C@@H]1c1ccccc12 [endo-8]

>  <Tested system>
BChE derived from purified human plasma (Homo sapiens)

>  <IC50>
> 500 µM

$$$$
>  <Compound>
Cc1cccc(CNc2ccc(C3C=CC4CC3c3ccccc34)cc2)c1 (stereo not drawn) [endo-10]

>  <Tested system>
BChE derived from purified human plasma (Homo sapiens)

>  <IC50>
63 µM

$$$$
>  <Compound>
Clc1cccc(CNc2ccc(C3C=CC4CC3c3ccccc34)cc2)c1 (stereo not drawn) [endo-13]

>  <Tested system>
BChE derived from purified human plasma (Homo sapiens)

>  <IC50>
> 500 µM

$$$$
>  <Compound>
Clc1ccc(CNc2ccc(C3C=CC4CC3c3ccccc34)cc2)cc1 (stereo not drawn) [endo-14]

>  <Tested system>
BChE derived from purified human plasma (Homo sapiens)

>  <IC50>
> 500 µM

$$$$

Query :: Name the reported IC50 value associated with the compound COc1ccc(CNc2ccc(C3=CCC4CC3c3ccccc34)cc2)cc1 (stereo not drawn)
Result :: 120 µM

Query :: Name the reported IC50 value associated with the compound COc1cccc(CNc2ccc(C3C=CC4CC3c3ccccc34)cc2)c1 (stereo not drawn) [endo-16]
Result :: > 500 µM

Query :: Name the reported IC50 value associated with the compound Clc1ccc(C2=CCC3CC2c2ccccc23)cc1 (stereo not drawn)
Result :: 260 µM

Query :: Name the reported IC50 value associated with the compound C1=C[C@H](c2ccc(NCc3ccco3)cc2)[C@H]2C[C@@H]1c1ccccc12 [endo-7]
Result :: ≥ 500 µM

Query :: Name the reported IC50 value associated with the compound Nc1ccc(C2=CCC3CC2c2ccccc23)cc1 (stereo not drawn)
Result :: 182 µM

Query :: Name the reported IC50 value associated with the compound C1=C[C@H](c2ccc(NCc3ccccc3)cc2)[C@H]2C[C@@H]1c1ccccc12 [endo-4]
Result :: 110 µM

Query :: Name the reported IC50 value associated with the compound COc1ccccc1CNc1ccc(C2C=CC3CC2c2ccccc23)cc1 (stereo not drawn) [endo-15]
Result :: > 500 µM

Query :: Name the reported IC50 value associated with the compound Fc1cccc(CNc2ccc(C3C=CC4CC3c3ccccc34)cc2)c1 (stereo not drawn) [endo-19]
Result :: > 500 µM
